testTarget: Polyprotein P1234 (Chikungunya virus (strain S27-African prototype))
assayName: Primary qHTS for inhibitors of NSP2Pro chikungunya virus (CHIKV); note: nearly all actives have a fitted effect of over 60% in size
conditionContext: FRET peptide cleavage, fluorescence 1 h; series mostly up to 24.9 µM
The campaign covered roughly 31,000 compounds. About 360 (1.2%) were called active. Roughly 8% stayed inconclusive and do not appear here. Calls come from the whole dose curve. This is one part of a sample in which actives are shown more often than they occur.
Outcome codes: active, inactive

INSERT INTO assay_data (compound, category) VALUES
  ('COc1ccc(-c2ccccc2C(=O)NCC#N)nn1', 'inactive'),
  ('COc1cc(OC)c(C(CC(=O)N2CC(C)CC(C)C2)c2ccc3c(c2)OCO3)c(OC)c1 (stereo not given)', 'inactive'),
  ('CCc1nc(-c2ccc(OC3CCN(C(=O)Cc4c[nH]c5ccccc45)C3)cc2)no1 (stereo not given)', 'inactive'),
  ('CC1CCC2(C)C(CC(O)C(O)C23CO3)C1(C)CCC1=CC(O)OC1=O (stereo not given)', 'inactive'),
  ('COc1ccc2oc(=O)c(-c3cn4c(n3)sc3cc(OC)ccc34)cc2c1', 'inactive'),
  ('COCc1nc(C2CC(N)C2)cc(N2CCC(Cn3cccn3)CC2)n1 (stereo not given)', 'inactive'),
  ('CC(C)NC(=O)NCC1Cn2cccc2C(=O)N1Cc1ccccc1 (stereo not given)', 'inactive'),
  ('C[C@@H]1[C@H](O)[C@@H]2OC(=O)C3=C2[C@H](CCC3)[C@@]12C[C@@H](c1ccoc1)OC2=O', 'active'),
  ('CCN(c1ncnc2c1cnn2-c1ccc(C)cc1)C1CCCCC1', 'inactive'),
  ('CCc1noc(-c2cn(C3CCN(C(=O)C4(c5ccccc5)CC4)C3)nn2)n1 (stereo not given)', 'inactive');

----------
testTarget: Polyprotein P1234 (Chikungunya virus (strain S27-African prototype)) (UniProt Q8JUX6)
Sequence (Q8JUX6 whole entry, looked up): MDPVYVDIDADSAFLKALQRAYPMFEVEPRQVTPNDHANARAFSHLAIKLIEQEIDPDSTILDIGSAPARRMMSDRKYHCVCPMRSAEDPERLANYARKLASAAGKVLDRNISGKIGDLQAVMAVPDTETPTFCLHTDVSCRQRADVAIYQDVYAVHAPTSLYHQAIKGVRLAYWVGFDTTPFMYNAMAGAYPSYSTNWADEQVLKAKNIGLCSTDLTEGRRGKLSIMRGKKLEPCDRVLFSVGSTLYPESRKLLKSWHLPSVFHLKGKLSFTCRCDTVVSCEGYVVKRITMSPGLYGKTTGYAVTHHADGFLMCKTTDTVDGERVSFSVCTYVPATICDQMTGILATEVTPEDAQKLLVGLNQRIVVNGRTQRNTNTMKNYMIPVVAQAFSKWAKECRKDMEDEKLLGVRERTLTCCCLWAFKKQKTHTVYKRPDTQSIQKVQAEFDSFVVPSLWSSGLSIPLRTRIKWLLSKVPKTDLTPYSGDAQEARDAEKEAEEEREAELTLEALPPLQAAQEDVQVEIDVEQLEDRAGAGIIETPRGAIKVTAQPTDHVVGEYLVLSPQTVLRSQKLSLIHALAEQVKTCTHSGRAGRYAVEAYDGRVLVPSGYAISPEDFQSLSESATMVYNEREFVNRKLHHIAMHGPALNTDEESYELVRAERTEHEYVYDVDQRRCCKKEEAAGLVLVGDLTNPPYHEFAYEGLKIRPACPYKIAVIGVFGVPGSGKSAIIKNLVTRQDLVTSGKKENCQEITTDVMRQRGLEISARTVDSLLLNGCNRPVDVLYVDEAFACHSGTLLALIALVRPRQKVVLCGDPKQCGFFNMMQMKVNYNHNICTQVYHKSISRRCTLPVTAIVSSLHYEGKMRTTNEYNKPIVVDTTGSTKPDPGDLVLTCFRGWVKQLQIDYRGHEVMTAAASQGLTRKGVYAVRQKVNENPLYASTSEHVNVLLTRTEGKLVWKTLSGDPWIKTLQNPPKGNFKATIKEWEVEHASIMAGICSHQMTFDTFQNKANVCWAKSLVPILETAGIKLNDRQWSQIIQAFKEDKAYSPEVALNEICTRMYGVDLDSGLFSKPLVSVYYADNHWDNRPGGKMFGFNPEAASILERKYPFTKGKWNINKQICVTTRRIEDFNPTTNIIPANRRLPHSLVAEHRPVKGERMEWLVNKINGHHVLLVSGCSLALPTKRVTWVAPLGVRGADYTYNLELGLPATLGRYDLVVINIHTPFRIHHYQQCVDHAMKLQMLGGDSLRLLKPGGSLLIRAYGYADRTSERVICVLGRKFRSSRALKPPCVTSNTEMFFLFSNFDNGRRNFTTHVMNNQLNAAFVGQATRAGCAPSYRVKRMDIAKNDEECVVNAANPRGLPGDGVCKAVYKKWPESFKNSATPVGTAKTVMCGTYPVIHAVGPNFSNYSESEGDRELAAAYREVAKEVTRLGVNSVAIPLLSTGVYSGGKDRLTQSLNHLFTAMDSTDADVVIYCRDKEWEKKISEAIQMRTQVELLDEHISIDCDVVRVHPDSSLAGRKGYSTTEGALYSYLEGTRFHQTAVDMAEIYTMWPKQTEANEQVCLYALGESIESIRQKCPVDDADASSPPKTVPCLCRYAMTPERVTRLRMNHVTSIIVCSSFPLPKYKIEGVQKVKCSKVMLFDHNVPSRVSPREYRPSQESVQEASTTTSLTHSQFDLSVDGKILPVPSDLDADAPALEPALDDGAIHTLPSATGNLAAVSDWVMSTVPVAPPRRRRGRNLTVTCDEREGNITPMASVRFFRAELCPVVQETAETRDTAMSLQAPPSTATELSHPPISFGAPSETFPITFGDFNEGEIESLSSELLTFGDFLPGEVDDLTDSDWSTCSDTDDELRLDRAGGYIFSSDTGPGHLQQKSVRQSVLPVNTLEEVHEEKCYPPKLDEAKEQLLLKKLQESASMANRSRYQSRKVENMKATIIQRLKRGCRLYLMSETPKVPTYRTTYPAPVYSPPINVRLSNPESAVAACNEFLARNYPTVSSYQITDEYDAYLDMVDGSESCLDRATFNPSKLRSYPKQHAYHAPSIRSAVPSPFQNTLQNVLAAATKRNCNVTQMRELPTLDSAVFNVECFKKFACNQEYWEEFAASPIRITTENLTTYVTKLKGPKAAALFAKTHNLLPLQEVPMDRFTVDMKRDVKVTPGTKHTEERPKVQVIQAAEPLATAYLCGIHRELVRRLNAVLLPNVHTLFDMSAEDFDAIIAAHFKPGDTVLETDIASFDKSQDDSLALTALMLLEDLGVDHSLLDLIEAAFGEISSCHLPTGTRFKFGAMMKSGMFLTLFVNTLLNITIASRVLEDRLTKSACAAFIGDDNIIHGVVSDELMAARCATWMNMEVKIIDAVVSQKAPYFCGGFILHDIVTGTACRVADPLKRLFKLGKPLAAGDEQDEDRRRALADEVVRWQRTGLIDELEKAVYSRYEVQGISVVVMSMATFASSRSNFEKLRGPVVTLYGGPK
assayName: Primary qHTS for inhibitors of NSP2Pro chikungunya virus (CHIKV); note: nearly all actives have a fitted effect of over 60% in size
conditionContext: FRET peptide cleavage, fluorescence 1 h; series mostly up to 24.9 µM
Source text: PI: Natalia J. Martinez Ph.D. National Center for Advancing Translational Sciences (NCATS), National Institute of Health (NIH), Rockville, Maryland Chikungunya virus (CHIKV) is a mosquito-borne RNA virus that has emerged as one of the most important global arboviral threats in the last decade. […] The pipeline is composed of a suite of 1,536-well in vitro assays to support quantitative high-throughput (qHTS) screening campaigns. […]
In all, about 31,000 compounds went through this assay and about 360 (1.2%) were called active. Not shown: some 8% with an inconclusive outcome. The call rests on the fitted dose curve. Shown is part of a subset that was picked to be rich in actives.
Outcome codes: active, inactive

INSERT INTO assay_data (compound, category) VALUES
  ('O=C(CSc1nccn1Cc1ccc(Cl)cc1)NCc1ccccc1', 'inactive'),
  ('CCC(CC)c1nn2cc(-c3ccccc3)nc2s1', 'inactive'),
  ('O=C(Cn1c(=O)n(-c2ccc(F)cc2)c(=O)c2sccc21)Nc1cccc(C(F)(F)F)c1', 'inactive'),
  ('CC(C)Sc1oc(-c2cccs2)nc1S(=O)(=O)c1ccc(Cl)cc1', 'inactive'),
  ('O=C(c1nc(-c2ccsc2)c2cnccn12)N1CCCC1', 'inactive'),
  ('CCOc1ccc(CCNC(=O)c2cc3ccccc3n2Cc2cccc(C)c2)cc1OCC', 'inactive'),
  ('COc1cccc(Nc2ccc(N3CCN(C(C)=O)CC3)cc2)c1OC', 'inactive'),
  ('Cc1cnn(CCC(=O)N2CCC3(CCNCC3)CC2)c1', 'inactive'),
  ('CCOc1ccc(CCNC(=O)C2=C(C)C(=O)OC23CCC(C)CC3)cc1OCC (stereo not given)', 'inactive'),
  ('CCOC(=O)c1ccc(NC(=O)c2c(NCc3cccc(OC)c3)sc3c2CCC3)cc1', 'inactive'),
  ('Cc1ccc(N2CCN(C(=O)CCc3c(C)nc4c(c3C)c(=O)n(C)c(=O)n4C)CC2)c(C)c1', 'inactive'),
  ('O=C(C1CCCC1)N1CC2(CCCN(Cc3ccccn3)C2)Cc2ccccc21 (stereo not given)', 'inactive'),
  ('O=C(O)c1ccc(CSc2nc3cccnc3n2Cc2cccc(F)c2)cc1', 'inactive'),
  ('CC(C)Nc1ncc(C(=O)NC2CCCN(CCc3ccccc3)C2)cn1 (stereo not given)', 'inactive'),
  ('CC(=O)N1Cc2ccccc2CC2(CCN(Cc3ccc(O)cc3)CC2)C1', 'inactive'),
  ('CNC(=O)[C@@H]1C[C@@H](O)CN1C1CCN(C(=O)C2(c3ccccc3)CC2)CC1', 'inactive'),
  ('Cc1ccc(Cl)cc1NC(=O)/C(C#N)=C\c1cn(Cc2ccc(F)cc2)c2ccccc12', 'inactive'),
  ('Cc1c(P(=S)(c2ccccc2)c2ccccc2)[n+]2ccccc2n1CCCCc1ccccc1', 'inactive'),
  ('N#Cc1cc(-c2nc(Nc3ccc(F)c(F)c3)c3ccccc3n2)ccn1', 'inactive'),
  ('COc1cccc(-c2cc(C(=O)N3CCN(c4ncccn4)CC3)c3cnn(C)c3n2)c1', 'inactive'),
  ('CCOc1ccc(CCNC(=O)c2c(C)oc3ncn(C)c(=O)c23)cc1', 'inactive'),
  ('Cc1ccccc1[C@@H](C(=O)NC1CCCCC1)N(C(=O)Cn1ccnc1C)c1cccc(F)c1', 'inactive'),
  ('Cc1ccc(-c2ccc(=O)n(CCNC(C)c3ccco3)n2)cc1 (stereo not given)', 'inactive'),
  ('COCC(=O)N(C[C@H]1O[C@@H](CC(=O)NC2CC2)[C@H](O)[C@@H]1O)C[C@H]1O[C@@H](CC(=O)NC2CC2)[C@H](O)[C@@H]1O', 'inactive'),
  ('COC(=O)CC[C@@H](C)C1CCC2C3CCC4C[C@H](OC(C)=O)CCC4(C)C3C[C@H](O)C21C (stereo not given in full)', 'inactive'),
  ('Cc1cnc(C(=O)N[C@H]2CCCCC/C=C\[C@@H]3C[C@@]3(C(=O)NS(=O)(=O)C3CC3)NC(=O)[C@@H]3C[C@@H](Oc4nc5ccccc5c5ccccc45)CN3C2=O)cn1', 'inactive'),
  ('CCCC12CN3CC(CCC)(CN(C1)C3c1c[nH]c3ccc(OC)cc13)C2=O (stereo not given)', 'inactive'),
  ('COc1ccc(C(=O)Nc2cccc(C(=O)OCc3cc(=O)n4c5c(sc4n3)CCCC5)c2)cc1', 'inactive'),
  ('COc1ccccc1N1CCN(c2ccc(=O)n(CC(=O)NCc3ccc(OC(C)C)cc3)n2)CC1', 'inactive'),
  ('Cc1nn(C(C)C(=O)NCCc2ccccc2)c(=O)c2c1sc1ccccc12 (stereo not given)', 'inactive'),
  ('COC(=O)c1c(NC(=O)CCCOc2ccccc2)sc2c1CCC(C)C2 (stereo not given)', 'inactive'),
  ('Cn1nnnc1Sc1ncnc2n[nH]c(-c3cccc(S(C)(=O)=O)c3)c12', 'active'),
  ('CCC(=O)N1CCc2cc(S(=O)(=O)NC(Cc3ccccc3)C(=O)NCc3ccc(C)cc3)ccc21 (stereo not given)', 'inactive'),
  ('CCOc1ccc(NC(=O)c2c(NC(=O)Cc3ccccc3)sc3c2CCCCC3)cc1', 'active'),
  ('CC(Nc1ncnc2ccc(-c3ccc4c(c3)OCO4)cc12)c1ccco1 (stereo not given)', 'inactive'),
  ('CCN(CC)c1cc(CCC(=O)NCc2cc(F)ccc2F)ccn1', 'inactive'),
  ('Cc1noc(C)c1S(=O)(=O)N1CC(C(=O)NC2CCCCC2)C2(CCOCC2)C1 (stereo not given)', 'inactive'),
  ('Fc1cc(Nc2nc(-c3ccncc3)nc3ccccc23)ccc1N1CCCCC1', 'inactive'),
  ('Cc1ccc(Cl)cc1NC(=O)C1CCCN(c2cnccn2)C1 (stereo not given)', 'inactive'),
  ('O=C(Nc1ccc2ncnc(N3CCCCC3)c2c1)C1CCCCC1', 'inactive');
